STUDY_TARGET: recombinant SlitCSP8 (Spodoptera litura)
TEST: Fluorescence competitive binding assay (1-NPN displacement), SlitCSP8
RUN_CONDITIONS: competitive binding with 1-NPN
REPORTED_PROPERTY: binding affinity to SlitCSP8 (in words)

Worked cases, answers included:
CC/C=C\CCO [cis-3-Hexen-1-ol]; at low concentrations
CCCCCCCCCC#N [Decanenitrile]; poor affinities
OCc1ccccc1 [Benzyl alcohol]; at low concentrations
N#Cc1ccccc1 [Benzonitrile]; poor affinities
CCc1ccco1 [2-Ethylfuran]; poor affinities

Here is the next item to consider.
Which binding affinity to SlitCSP8 (in words) value belongs to NC(=O)c1ccncc1 [Isonicotinamide] ? at low concentrations

---

STUDY_TARGET: recombinant SlitCSP8 (Spodoptera litura)
TEST: Fluorescence competitive binding assay (1-NPN displacement), SlitCSP8
RUN_CONDITIONS: read-out: IC50 SlitCSP8; competitor's concentration halving the initial fluorescence; protein 2 μM; ligand 0 to 20 μM; 1-NPN probe
Please go through the items and note down their pIC50.
Give bare numbers, as −log10 of the molar value.

O=Cc1ccccc1 [Benzaldehyde]; 5.28

What pIC50 value was documented for this molecule, S=C=NCCc1ccccc1 [Phenethyl isothiocyanate] ? 5.36

---

STUDY_TARGET: recombinant SlitCSP8 (Spodoptera litura, UniProt A0A0P0EUM0)
Sequence (A0A0P0EUM0 18-128 with tags or gaps limits assumed): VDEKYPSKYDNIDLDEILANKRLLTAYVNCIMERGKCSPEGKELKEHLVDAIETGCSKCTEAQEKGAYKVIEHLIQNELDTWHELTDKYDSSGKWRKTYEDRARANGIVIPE
TEST: Fluorescence competitive binding assay (1-NPN displacement), SlitCSP8
RUN_CONDITIONS: read-out: Kd SlitCSP8; dissociation constant of the competitor calculated from IC50: KD = [IC50]/(1 + [1-NPN]/K1-NPN)
Record form. Attribute: Kd. Fill in for each entry.
Answers are plain numbers, in µM.

S=C=NCCc1ccccc1 [Phenethyl isothiocyanate]; 6.17

Can you look up Kd on recombinant SlitCSP8 (Spodoptera litura, UniProt A0A0P0EUM0) for O=Cc1ccccc1 [Benzaldehyde] ? 7.47

---

STUDY_TARGET: recombinant SlitCSP11 (Spodoptera litura, UniProt A0A0P0EM27)
Sequence (A0A0P0EM27 entry or part of it): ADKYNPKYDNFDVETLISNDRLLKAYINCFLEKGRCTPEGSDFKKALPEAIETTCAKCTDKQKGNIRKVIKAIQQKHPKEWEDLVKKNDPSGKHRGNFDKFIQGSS
Format: binding
RUN_CONDITIONS: dissociation constant of the competitor calculated from IC50: KD = [IC50]/(1 + [1-NPN]/K1-NPN)
Text: The curves were linearized by Scatchard plots.
REPORTED_PROPERTY: Kd SlitCSP11

Guide cases for Kd SlitCSP11, answers given:
CCC/C=C/C(=O)O [trans-2-Hexenoic acid]; u.d
O=Cc1ccc(CO)o1 [5-(Hydroxymethyl)furfural]; u.d
N#Cc1ccccc1; u.d
CC/C=C\CCO [cis-3-Hexen-1-ol]; u.d
CCCCCC=O; u.d

For each of the molecules below, note its Kd SlitCSP11.
1. CCc1ccco1
2. CCCCCCCCCC#N

["u.d", "u.d"]
